Would you mind telling me the reported GALAP herbicidal rating of each entry?
system: GALAP Galium; assay: Preemergence herbicidal evaluation, GALAP; format: in vivo, Galium aparine; design: scale not given here; details: preemergence, rate 0.125 kg/ha
One number for each entry.

Look over these answered cases.
[[record]]
compound = "COC(=O)COc1ccc(C)c(-n2nnc3cc(F)c(-n4c(=O)cc(C(F)(F)F)n(C)c4=O)cc32)c1 [Example 38]"
system = "GALAP Galium"
observed_measurement = 0.0

[[record]]
compound = "C#CCOC(=O)COc1ccc(C)cc1-n1nnc2cc(F)c(-n3c(=O)cc(C(F)(F)F)n(C)c3=O)cc21 [Example 40]"
system = "GALAP Galium"
observed_measurement = 9.0

[[record]]
compound = "Cn1c(C(F)(F)F)cc(=O)n(-c2cc3c(cc2F)nnn3-c2ccc(OCC(=O)O)cc2)c1=O [Example 44]"
system = "GALAP Galium"
observed_measurement = 7.0


Let us move to another entry and its GALAP herbicidal rating.
Sample COCc1ccccc1-n1nnc2cc(F)c(-n3c(=O)cc(C(F)(F)F)n(C)c3=O)cc21 [Example 26] ; GALAP herbicidal rating observed: 8.0
